We begin with a simple list: items and their reported IC50, Cyno ENTPD2 NIH/3T3 Assay.
Molecular target: T1, cyno ENTPD2 expressed on NIH/3T3 cells (cynomolgus macaque, UniProt Q9Y5L3 1-495 (human entry))
T1 chain: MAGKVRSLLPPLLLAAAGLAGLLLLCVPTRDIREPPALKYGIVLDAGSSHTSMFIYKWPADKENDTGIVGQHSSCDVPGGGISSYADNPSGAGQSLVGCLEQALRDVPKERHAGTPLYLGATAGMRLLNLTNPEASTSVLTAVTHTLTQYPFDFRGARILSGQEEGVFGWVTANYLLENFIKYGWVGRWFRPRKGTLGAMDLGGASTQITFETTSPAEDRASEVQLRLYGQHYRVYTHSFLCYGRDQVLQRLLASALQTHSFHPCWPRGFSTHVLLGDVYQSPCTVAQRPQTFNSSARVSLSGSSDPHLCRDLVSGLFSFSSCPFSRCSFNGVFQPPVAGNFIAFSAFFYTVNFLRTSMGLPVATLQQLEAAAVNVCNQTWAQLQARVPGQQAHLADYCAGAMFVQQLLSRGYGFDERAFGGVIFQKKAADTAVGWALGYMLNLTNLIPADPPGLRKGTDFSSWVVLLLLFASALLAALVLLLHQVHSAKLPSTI
Experiment: cell-based or functional assay
# value in nM; strip the unit string

ANTI-HUMAN ENTPD2 MAB17 (antibody, human IgG1, kappa, V domains shown) VH: EVQLQQFGAELVKPGASVKISCKASGYTFTDYNMDWVKQSHGKSLEWIGDINPKYDISTYNQQFKGKATLTVDKSSSTAYMELRSLTSEDTAVYYCARRGFFLYYGINYYYFDVWGAGTTVTVSS VL: QIVLTQSPAIMSASLGEEITLTCSASSSVSYIHWYQQKSGTSPTLLIYSTSNLASGVPSRFSGSGSGTFYSLTISSVEAEDAADYYCHQWSSYPWTFGGGTKLEIKR ... 1

Now let's try a different one.
Give the reported IC50, Cyno ENTPD2 NIH/3T3 Assay for this binder. ANTI-HUMAN ENTPD2 MAB4 (antibody, human IgG1, kappa, V domains shown, humanized and optimized from mAb16; human IgG1, kappa; also called Anti-ENTPD2 mAb4) VH: QIQLQESGPGLVKPSQTLSLTCTVSGYSITSGYYWNWIRQHPGKGLEWIGYISYDADNNYNPSLKNRVTISRDTSKNQFSLKLSSVTAADTAVYYCAGGYYRYGLGSYRGSYYYVMDYWGQGTTVTVSS VL: ETVLTQSPATLSVSPGERATISCKASQSVDYEGHSYMNWYQQKPGQAPRLLIYAASNLESGIPARFSGSGSGTDFTLTISSVEPEDAATYYCQQSNEDPPTFGGGTKLEIKR
2.2
